Data provenance: patent US10301260B2

Molecular target: hGPR40 (Homo sapiens)
Construct: 3xFLAG
Sequence (O14842 whole entry): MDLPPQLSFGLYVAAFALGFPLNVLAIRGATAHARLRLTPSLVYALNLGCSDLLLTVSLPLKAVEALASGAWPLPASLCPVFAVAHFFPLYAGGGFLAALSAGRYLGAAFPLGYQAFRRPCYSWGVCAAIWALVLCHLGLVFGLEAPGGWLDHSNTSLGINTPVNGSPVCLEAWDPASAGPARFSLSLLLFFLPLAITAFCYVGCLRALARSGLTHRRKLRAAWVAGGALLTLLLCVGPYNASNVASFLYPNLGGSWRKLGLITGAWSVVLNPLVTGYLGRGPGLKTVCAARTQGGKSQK
Assay: FDSS-based intracellular calcium assay (Human GRP40 In Vitro assay)
Conditions: cells expressing GPR40, intracellular Ca2+ response
pEC50: −log10 of the molar value. Counter-ions that a name gives are not always drawn.
Decide using pEC50: a value greater than or equal to 7 is MET, a smaller one is NOT MET.

>  <compound>
COc1ccc(F)c(-c2ccc(Cc3ccc(N4C[C@H](c5ccc(-c6ccccc6)cc5)C[C@@H]4CC(=O)O)cc3)c(C)c2)c1 [Example 4, HCl]

>  <assigned.label>
NOT MET

$$$$
>  <compound>
COc1ccc(F)c(-c2ccc(Cc3ccc(N4CC(c5cc(C)no5)CC4CC(=O)O)cc3)c(C)c2)c1 (single isomer, unassigned) [Example 9, Isomer 2, HCl]

>  <assigned.label>
NOT MET

$$$$
>  <compound>
COc1ccc(F)c(-c2ccc(Cc3ccc(N4C[C@@H](c5ccccn5)C[C@@H]4CC(=O)O)cc3)c(C)c2)c1 [Example 10, HCl]

>  <assigned.label>
NOT MET

$$$$
>  <compound>
COc1ccc(F)c(-c2ccc(Cc3ccc(N4CC(c5ccon5)CC4CC(=O)O)cc3)c(C)c2)c1 (single isomer, unassigned) [Example 11, Isomer 2, HCl]

>  <assigned.label>
NOT MET

$$$$
>  <compound>
COc1ccc(F)c(-c2ccc(Cc3ccc(N4CC(c5cccc(Cl)c5)C[C@@H]4CC(=O)O)cc3)c(C)c2)c1 (single isomer, unassigned) [Example 12, Isomer 2, HCl]

>  <assigned.label>
MET

$$$$
>  <compound>
COc1ccc(F)c(-c2ccc(Cc3ccc(N4C[C@H](C5CCCCC5)C[C@@H]4CC(=O)O)cc3)c(C)c2)c1 [Example 3, HCl]

>  <assigned.label>
MET

$$$$
>  <compound>
COc1ccc(F)c(-c2ccc(Cc3ccc(N4CC(C#N)CC4CC(=O)O)cc3)c(C)c2)c1 (centres unmarked) [Example 2, TFA]

>  <assigned.label>
NOT MET

$$$$
>  <compound>
COc1ccc(F)c(-c2ccc(Cc3ccc(N4C[C@H](c5ccccc5OC)C[C@@H]4CC(=O)O)cc3)c(C)c2)c1 (single isomer, unassigned) [Example 15, Isomer 1, HCl]

>  <assigned.label>
MET

$$$$
>  <compound>
COc1ccc(F)c(-c2ccc(Cc3ccc(N4C[C@H](c5ccccc5)C[C@@H]4CC(=O)O)cc3)c(C)c2)c1 [Example 1, HCl]

>  <assigned.label>
MET

$$$$
>  <compound>
COCCO[C@@H]1C[C@H](CC(=O)O)N(c2ccc(Cc3ccc(-c4cc(OC)ccc4F)cc3C)cc2)C1 [Example 7, HCl]

>  <assigned.label>
NOT MET

$$$$
>  <compound>
COc1ccc(F)c(-c2ccc(Cc3ccc(N4CC(c5cc(C)no5)CC4CC(=O)O)cc3)c(C)c2)c1 (single isomer, unassigned) [Example 9, Isomer 4, HCl]

>  <assigned.label>
NOT MET

$$$$
>  <compound>
COCCCO[C@H]1CN(c2ccc(Cc3ccc(-c4cc(OC)ccc4F)cc3C)cc2)[C@@H](CC(=O)O)[C@@H]1C [Example 17, HCl]

>  <assigned.label>
MET

$$$$
>  <compound>
COc1ccc(F)c(-c2ccc(Cc3ccc(N4CC(c5ccon5)CC4CC(=O)O)cc3)c(C)c2)c1 (single isomer, unassigned) [Example 11, Isomer 1, HCl]

>  <assigned.label>
NOT MET

$$$$
